Consider the following molecules and their measured TGI readings.
- System: HS 578T breast
- assayRemarks: NCI tumour cell line growth inhibition, 48 h

{"molecule": "CC1=NN(c2nc(N)nc(C(C)Sc3cc(Cl)c(C)cc3S(N)(=O)=O)n2)C(C)(C)C1 (configuration not stated)", "TGI": "> 10 µM"}
{"molecule": "CN(C)CCCc1cccnc1", "TGI": "> 100 µM"}
{"molecule": "O=C(O)CNC(=O)c1ccccc1O", "TGI": "> 100 µM"}
{"molecule": "Cn1c(=O)nc2n(CCO)ccnc-2c1=O", "TGI": "> 100 µM"}
{"molecule": "O=C(N1CCOCC1)C1(c2ccccc2)CCNCC1", "TGI": "> 100 µM"}
{"molecule": "Nc1ncnc2c1ncn2[C@@H]1C[C@H]1CO", "TGI": "> 100 µM"}
{"molecule": "Cn1c(=O)oc2cc(C(=S)N3CCC(Cc4ccccc4)CC3)ccc21", "TGI": "> 100 µM"}
{"molecule": "COc1ccc(OC)c(C2CCCc3c2cnc2nc(N)nc(N)c32)c1 (configuration not stated)", "TGI": "> 100 µM"}
{"molecule": "OC(c1ccsc1)c1cc2ccccc2s1 (configuration not stated)", "TGI": "> 10 µM"}
{"molecule": "CN(C)C1(C(=O)O)CC1", "TGI": "> 100 µM"}
{"molecule": "COc1ccc(N2C(=O)CSC2c2cc3cc(Br)ccc3nc2Cl)cc1 (configuration not stated)", "TGI": "> 50 µM"}
{"molecule": "O=C(N/N=C/c1coc2ccc(Cl)cc2c1=O)c1ccncc1", "TGI": "> 100 µM"}

Origin of the recorded values: PubChem BioAssay (NCI)
